- Test system: Vero C1008
- assay_conditions: chlorocebus sabaeus, vero c1008, 48 h
- Description: Cytotoxicity against African Green monkey Vero E6 cells assessed as reduction in cell viability measured after 48 hrs by MTT assay
readout_type: CC50 (µM)
// note: answer is a bare numeric in µM

[
  {
    "compound": "O=C(Nc1ccc(N2CCCCC2)cc1)c1cc(Cl)ccc1O",
    "readout_type": "CC50",
    "observed_measurement": 65.9
  },
  {
    "compound": "O=C(Nc1ccc([N+](=O)[O-])cc1Cl)c1cc(F)ccc1O",
    "readout_type": "CC50",
    "observed_measurement": 8.15
  },
  {
    "compound": "Cc1ccc(O)c(C(=O)Nc2ccc([N+](=O)[O-])cc2Cl)c1",
    "readout_type": "CC50",
    "observed_measurement": 5.68
  },
  {
    "compound": "O=C(Nc1ccccc1)c1cc(Cl)ccc1O",
    "readout_type": "CC50",
    "observed_measurement": 19.2
  },
  {
    "compound": "O=C(Nc1cccc(Cl)c1)c1cc(Cl)ccc1O",
    "readout_type": "CC50",
    "observed_measurement": 2.46
  }
]

Provide the documented CC50 with Vero C1008 as the system for O=C(Nc1cccc(C(F)(F)F)c1)c1cc(Cl)ccc1O
5.95

Provide the documented CC50 with Vero C1008 as the system for Cc1cccc(CNC(=O)c2cc(Cl)ccc2O)c1
82.4

---

- Tested on: SARS-CoV-2
- procedure_text: Antiviral activity against SARS-CoV-2 infected in African Green monkey Vero cells assessed as inhibition of viral cytopathic effect measured after 72 hrs by inverted microscopic method
- Type: functional, organism-based, Vero E6
- assay_conditions: Severe acute respiratory syndrome coronavirus 2, Vero C1008, 72 h
readout_type: pIC50
# reply with the number alone; pIC50 is -log10 of concentration in mol/L

Check out these entries, answers already filled in.
[
  {
    "compound_smiles": "Cc1c(O)cccc1C(=O)N[C@@H](CSc1ccccc1)[C@H](O)CN1C[C@H]2CCCC[C@H]2C[C@H]1C(=O)NC(C)(C)C",
    "observed_measurement": 5.48
  },
  {
    "compound_smiles": "O=C(Nc1cccc([N+](=O)[O-])c1)c1cc(Cl)ccc1O",
    "observed_measurement": 5.89
  },
  {
    "compound_smiles": "O=C(Nc1ccc([N+](=O)[O-])c(Cl)c1)c1cc(Cl)ccc1O",
    "observed_measurement": 7.24
  }
]

Please look up its pIC50: O=C(Nc1cccc(C(F)(F)F)c1)c1cc(Cl)ccc1O
6.31

Please look up its pIC50: O=C(Nc1ccc([N+](=O)[O-])cc1Cl)c1ccccc1O
5.77

---

- procedure_text: Stability of compound in human plasma at 100 uM by HPLC analysis
- Type: ADME, cell-free
- assay_conditions: read-out: Stability
readout_type: remaining at 100 µM (%)
// note: answer is a bare numeric in %

Please look up its remaining at 100 µM: O=C(Nc1ccc([N+](=O)[O-])c(Cl)c1)c1cc(Cl)ccc1O
78

---

- procedure_text: in vitro
- assay_conditions: chlorocebus sabaeus, Vero E6 cells
- Description: Cytotoxicity against African green monkey Vero E6 cells assessed as reduction in cell viability preincubated for 2 hrs followed by SARS-CoV-2 addition measured after 24 hrs by CPE assay
Measured CC50 at 24 h of individual entries
// note: answer is a bare numeric in µM

[
  {
    "compound_smiles": "O=C(Nc1ccc([N+](=O)[O-])cc1Cl)c1ccccc1O",
    "CC50 at 24 h [µM]": 100
  }
]

Please look up its CC50 at 24 h: O=C(Nc1cccc(C(F)(F)F)c1)c1cc(Cl)ccc1O
100

---

- procedure_text: in vitro
- assay_conditions: PAMPA
- Description: Permeability of compound incubated for 3 hrs by UV plate reader based PAMPA assay
Measured Papp at 3 h of individual entries
// note: answer is a bare numeric in ×10⁻⁶ cm/s

Check out these entries, answers already filled in.
[
  {
    "compound": "O=C(Nc1cccc([N+](=O)[O-])c1)c1cc(Cl)ccc1O",
    "Papp at 3 h [×10⁻⁶ cm/s]": 19.5
  },
  {
    "compound": "CC(C)(C)c1cccc(NC(=O)c2cc(Cl)ccc2O)c1",
    "Papp at 3 h [×10⁻⁶ cm/s]": 18.7
  },
  {
    "compound": "Cc1ccc(CNC(=O)c2cc(Cl)ccc2O)cc1",
    "Papp at 3 h [×10⁻⁶ cm/s]": 42.6
  },
  {
    "compound": "CNC(=C[N+](=O)[O-])NCCSCc1ccc(CN(C)C)o1",
    "Papp at 3 h [×10⁻⁶ cm/s]": 1.6
  }
]

Please look up its Papp at 3 h: O=C(Nc1ccc([N+](=O)[O-])cc1Cl)c1cc(Cl)ccc1O [NICLOSAMIDE]
8.5

Please look up its Papp at 3 h: O=C(Nc1ccc(C(F)(F)F)cc1)c1cc(Cl)ccc1O
6.9

Please look up its Papp at 3 h: O=C(Nc1cccc(C(F)(F)F)c1)c1cc(Cl)ccc1O
4.2

Please look up its Papp at 3 h: Cc1cccc(CNC(=O)c2cc(Cl)ccc2O)c1
28.4

Please look up its Papp at 3 h: O=C(Nc1cccc(O)c1)c1cc(Cl)ccc1O
15.9

---

- Test system: Vero C1008
- assay_conditions: chlorocebus sabaeus, vero c1008, 48 h
For each record, check the reported CC50: if it is below 4 µM write yes (1), else write no (0).

[
  {
    "compound_smiles": "O=C(Nc1cccc(F)c1)c1cc(Cl)ccc1O",
    "assayed_system": "Vero C1008",
    "category": "yes (1)"
  },
  {
    "compound_smiles": "O=C(Nc1ccc(F)cc1)c1cc(Cl)ccc1O",
    "assayed_system": "Vero C1008",
    "category": "no (0)"
  },
  {
    "compound_smiles": "O=C(Nc1ccc(O[C@@H]2O[C@H](CO)[C@@H](O)[C@H](O)[C@H]2O)cc1)c1cc(Cl)ccc1O",
    "assayed_system": "Vero C1008",
    "category": "no (0)"
  },
  {
    "compound_smiles": "CC(C)(C)c1cccc(NC(=O)c2cc(Cl)ccc2O)c1",
    "assayed_system": "Vero C1008",
    "category": "yes (1)"
  },
  {
    "compound_smiles": "O=C(Nc1ccc(F)c(Cl)c1)c1cc(Cl)ccc1O",
    "assayed_system": "Vero C1008",
    "category": "yes (1)"
  }
]

Continue with the next compound.
Could you please tell me whether CC50 recorded for Cc1ccc(C(=O)Nc2ccc([N+](=O)[O-])cc2Cl)c(O)c1 is less than 4 µM?
no (0)

---

- procedure_text: in vitro
- assay_conditions: chlorocebus sabaeus, Vero E6 cells
- Description: Cytotoxicity against African Green monkey Vero E6 cells assessed as reduction in cell viability measured after 48 hrs by MTT assay
Measured CC50 at 48 h of individual entries

[
  {
    "compound_smiles": "O=C(Nc1ccc(O)cc1)c1cc(Cl)ccc1O",
    "CC50 at 48 h": "> 100 µM"
  }
]

Now, please, on to the next compound.
Please look up its CC50 at 48 h: O=C(Nc1cccc(O)c1)c1cc(Cl)ccc1O
> 100 µM

---

- Test system: Vero C1008
- assay_conditions: chlorocebus sabaeus, vero c1008, 48 h
readout_type: CC50

Please look up its CC50: O=C(Nc1ccc([N+](=O)[O-])cc1Cl)c1ccccc1
> 100 µM

Please look up its CC50: O=C(Nc1cccc([N+](=O)[O-])c1)c1cc(Cl)ccc1O
3.53 µM

Please look up its CC50: Cc1ccc(CNC(=O)c2cc(Cl)ccc2O)cc1
47.7 µM

Please look up its CC50: O=C(Nc1ccc([N+](=O)[O-])cc1Cl)c1ccccc1O
2.03 µM

Please look up its CC50: O=C(Nc1ccc([N+](=O)[O-])cc1Cl)c1cc(Cl)ccc1O [NICLOSAMIDE]
1.03 µM

---

- procedure_text: in vitro
- assay_conditions: PAMPA
For each record, check the reported Papp at 3 h: if it is below 10 ×10⁻⁶ cm/s write Met, else write Not met.

[
  {
    "compound_smiles": "O=C(Nc1ccc([N+](=O)[O-])cc1Cl)c1ccccc1O",
    "category": "Not met"
  },
  {
    "compound_smiles": "Cc1ccc(O)c(C(=O)Nc2ccc([N+](=O)[O-])cc2Cl)c1",
    "category": "Not met"
  },
  {
    "compound_smiles": "O=C(Nc1ccc(O)cc1)c1cc(Cl)ccc1O",
    "category": "Not met"
  },
  {
    "compound_smiles": "O=C(Nc1ccccc1)c1cc(Cl)ccc1O",
    "category": "Not met"
  }
]

Could you please tell me whether Papp at 3 h recorded for O=C(Nc1cccc(Cl)c1)c1cc(Cl)ccc1O is less than 10 ×10⁻⁶ cm/s?
Met

Could you please tell me whether Papp at 3 h recorded for O=C(Nc1ccc(N2CCCCC2)cc1)c1cc(Cl)ccc1O is less than 10 ×10⁻⁶ cm/s?
Not met

---

- procedure_text: in vitro
- assay_conditions: PAMPA
For each record, check the reported Papp at 3 h: if it is below 4 ×10⁻⁶ cm/s write condition met, else write condition not met.

Here are 5 compounds together with their reported answers.
[
  {
    "compound_smiles": "O=C(Nc1ccc([N+](=O)[O-])cc1Cl)c1cc(F)ccc1O",
    "category": "condition not met"
  },
  {
    "compound_smiles": "Cc1ccc(C(=O)Nc2ccc([N+](=O)[O-])cc2Cl)c(O)c1",
    "category": "condition not met"
  },
  {
    "compound_smiles": "O=C(Nc1ccc([N+](=O)[O-])cc1Cl)c1ccccc1",
    "category": "condition not met"
  },
  {
    "compound_smiles": "O=C(Nc1ccc(F)c(Cl)c1)c1cc(Cl)ccc1O",
    "category": "condition not met"
  },
  {
    "compound_smiles": "O=C(Nc1cccc(F)c1)c1cc(Cl)ccc1O",
    "category": "condition met"
  }
]

Could you please tell me whether Papp at 3 h recorded for O=C(Nc1ccc(O[C@@H]2O[C@H](CO)[C@@H](O)[C@H](O)[C@H]2O)cc1)c1cc(Cl)ccc1O is less than 4 ×10⁻⁶ cm/s?
condition met
